# credit: ChEMBL document CHEMBL5329176

# assay-info: Metabolic stability in human plasma assessed as parent compound remaining and measured after 120 mins by LC-MS/MS analysis
# Assay type: ADME, cell-free
# experimental-setup: read-out: Stability
property: remaining at 2 h (%)
Record the value in %, omitting the unit from your answer.

Exercise: Fill in: remaining at 2 h of Nc1ccc(Sc2ccnc(Nc3ccc(NC4CCOCC4)cc3)n2)cc1 is ___
Solution: 104

* * *

# assay-info: Metabolic stability in human plasma assessed as parent compound remaining and measured after 0 mins by LC-MS/MS analysis
# Type: ADME, cell-free
# experimental-setup: read-out: Stability
property: remaining at 0 h (%)
Just the number please, in %, no unit attached.

Exercise: Bench note: what remaining at 0 h did Nc1ccc(Sc2ccnc(Nc3ccc(NC4CCOCC4)cc3)n2)cc1 show?
Solution: 100

* * *

# assay-target: CYP2C19 (Homo sapiens)
# Sequence (P33261 whole entry): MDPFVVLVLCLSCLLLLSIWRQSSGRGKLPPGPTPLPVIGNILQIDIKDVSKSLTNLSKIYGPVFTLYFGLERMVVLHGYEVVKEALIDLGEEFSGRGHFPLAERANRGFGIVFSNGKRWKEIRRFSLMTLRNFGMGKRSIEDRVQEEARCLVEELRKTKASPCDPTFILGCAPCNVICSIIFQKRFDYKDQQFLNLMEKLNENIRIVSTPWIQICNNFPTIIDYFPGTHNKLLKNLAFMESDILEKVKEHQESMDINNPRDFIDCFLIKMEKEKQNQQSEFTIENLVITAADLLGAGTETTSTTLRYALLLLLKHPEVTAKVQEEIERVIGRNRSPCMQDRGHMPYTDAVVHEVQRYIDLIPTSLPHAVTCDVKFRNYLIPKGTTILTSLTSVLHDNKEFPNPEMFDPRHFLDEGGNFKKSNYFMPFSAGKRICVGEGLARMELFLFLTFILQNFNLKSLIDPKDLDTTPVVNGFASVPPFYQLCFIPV
# assay-info: Inhibition of CYP2C19 in human liver microsomes at 10 uM preincubated for 10 mins followed by NADPH cofactor addition and measured after 10 mins by LC-MS/MS analysis
# Assay type: ADME, Microsome
# experimental-setup: time 20 min
property: inhibition at 10 min, 10 µM (%)
Numeric answer only, unit % assumed.

Exercise: // map Nc1ccc(Sc2ccnc(Nc3ccc(NC4CCOCC4)cc3)n2)cc1 to recorded inhibition at 10 min, 10 µM (system: CYP2C19 (Homo sapiens))
Solution: 48.7

* * *

# assay-info: Metabolic stability in human liver microsomes assessed as intrinsic clearance in presence of NADPH as co-foctor incubated for 60 mins by LC-MS/MS analysis
# Assay type: ADME, Microsome
# experimental-setup: read-out: CLH
property: microsomal CLint (µL/min/mg)
Please give a number only; it is taken to be in µL/min/mg.

Exercise: So what's the measured microsomal CLint for this one? Nc1ccc(Sc2ccnc(Nc3ccc(N4CCOCC4)cc3)n2)cc1
Solution: 23.8

* * *

# assay-info: Metabolic stability in human plasma assessed as parent compound remaining and measured after 30 mins by LC-MS/MS analysis
# Type: ADME, cell-free
# experimental-setup: read-out: Stability
property: remaining at 0.5 h (%)
Lab book: enter the figure in %, no units written.

Exercise: Could you tell me which remaining at 0.5 h is on file for Nc1ccc(Sc2ccnc(Nc3ccc(NC4CCOCC4)cc3)n2)cc1 ?
Solution: 114

* * *

Could you please report measured IC50 for the items listed next?
# assay-target: Serine/threonine-protein kinase PLK4 (Homo sapiens)
# Sequence (O00444 whole entry): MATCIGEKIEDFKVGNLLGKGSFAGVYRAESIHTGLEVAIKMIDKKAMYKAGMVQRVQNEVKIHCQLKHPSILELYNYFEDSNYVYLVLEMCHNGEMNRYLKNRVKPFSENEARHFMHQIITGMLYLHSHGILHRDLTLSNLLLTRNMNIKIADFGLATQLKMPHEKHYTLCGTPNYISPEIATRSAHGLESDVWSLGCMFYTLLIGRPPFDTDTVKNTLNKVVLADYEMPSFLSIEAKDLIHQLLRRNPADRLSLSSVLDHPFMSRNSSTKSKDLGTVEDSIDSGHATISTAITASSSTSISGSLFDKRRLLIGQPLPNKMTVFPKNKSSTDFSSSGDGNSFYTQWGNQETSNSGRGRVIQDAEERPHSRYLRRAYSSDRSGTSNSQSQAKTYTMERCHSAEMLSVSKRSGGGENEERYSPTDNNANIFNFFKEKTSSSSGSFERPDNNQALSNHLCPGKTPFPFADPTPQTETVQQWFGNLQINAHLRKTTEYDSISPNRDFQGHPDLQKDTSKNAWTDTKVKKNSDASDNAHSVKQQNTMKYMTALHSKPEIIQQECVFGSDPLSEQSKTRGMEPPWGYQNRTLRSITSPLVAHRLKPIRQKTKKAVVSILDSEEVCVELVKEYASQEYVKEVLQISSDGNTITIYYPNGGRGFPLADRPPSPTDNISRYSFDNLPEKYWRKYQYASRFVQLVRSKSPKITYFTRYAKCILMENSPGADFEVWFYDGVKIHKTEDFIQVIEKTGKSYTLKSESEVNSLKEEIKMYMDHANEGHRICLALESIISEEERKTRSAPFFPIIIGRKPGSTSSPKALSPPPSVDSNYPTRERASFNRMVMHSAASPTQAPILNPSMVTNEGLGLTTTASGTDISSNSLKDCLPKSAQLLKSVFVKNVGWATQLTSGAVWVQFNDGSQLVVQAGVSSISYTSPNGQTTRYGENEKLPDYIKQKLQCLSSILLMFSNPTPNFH
# assay-info: Inhibition of human recombinant PLK4 incubated for 1 hrs by LanthaScreen Eu kinase FRET assay
Kindly answer with a numeric value in nM, unit omitted.

Exercise: I would be grateful if you could share the reported IC50 for Fc1ccc(Sc2ccnc(Nc3ccc(N4CCOCC4)cc3)n2)cc1 .
Solution: 198

Exercise: // repeat for CNc1ccc(Sc2ccnc(Nc3ccc(N4CCOCC4)cc3)n2)cc1 and report
Solution: 71

Exercise: Okay, and Nc1ccc(Sc2ccnc(Nc3ccc(NC4CCOCC4)cc3)n2)cc1 ?
Solution: 7

Exercise: What do you get for Brc1ccccc1Sc1ccnc(Nc2ccc(N3CCOCC3)cc2)n1 ?
Solution: 219

Exercise: Field entry: c1ccc(Sc2ccnc(Nc3ccc(N4CCOCC4)cc3)n2)cc1
Solution: 31

Exercise: Repeat with Nc1ccc(Sc2ccnc(Nc3ccc(N4CCOCC4)cc3)n2)c(F)c1
Solution: 35

Exercise: Again, but for Clc1ccccc1Sc1ccnc(Nc2ccc(N3CCOCC3)cc2)n1
Solution: 142

Exercise: How about this compound: Nc1ccc(Sc2ccnc(Nc3cccc(CN4CCOCC4)c3)n2)cc1
Solution: 137

Exercise: Moving on to Nc1ccc(Sc2ccnc(Nc3ccc(NC4CCNCC4)cc3)n2)cc1
Solution: 57

Exercise: Next up: c1cc(Sc2ccc3[nH]ncc3c2)nc(Nc2ccc(N3CCOCC3)cc2)n1
Solution: 125

Exercise: Also CN(C)c1ccc(Sc2ccnc(Nc3ccc(N4CCOCC4)cc3)n2)cc1 ?
Solution: 313

Exercise: Query Nc1ccc(Sc2ccnc(Nc3ccc(N4CCSCC4)cc3)n2)cc1 next
Solution: 1100

Exercise: Note, next up: Brc1ccc(Sc2ccnc(Nc3ccc(N4CCOCC4)cc3)n2)cc1
Solution: 189

* * *

# assay-info: Metabolic stability in human liver microsomes assessed as half life in presence of NADPH as co-foctor incubated for 60 mins by LC-MS/MS analysis
# Format: ADME, Microsome
property: half-life (min)
Could you give me the number in min? Just the number is fine.

Exercise: Need half-life of Nc1ccc(Sc2ccnc(Nc3ccc(N4CCOCC4)cc3)n2)cc1 , thanks.
Solution: 58.3

* * *

# assay-info: Metabolic stability in human liver microsomes assessed as parent compound remaining in absence of NADPH as co-foctor and measured after 60 mins by LC-MS/MS analysis
# Type: ADME, Microsome
# experimental-setup: read-out: Stability
property: remaining at 1 h

Exercise: Would you mind telling me what remaining at 1 h value was observed for Nc1ccc(Sc2ccnc(Nc3ccc(NC4CCOCC4)cc3)n2)cc1 ?
Solution: 104%

Exercise: Another molecule to look at: Nc1ccc(Sc2ccnc(Nc3ccc(N4CCOCC4)cc3)n2)cc1
Solution: 94.4%

* * *

# assay-info: Metabolic stability in human liver microsomes assessed as parent compound remaining in presence of NADPH as co-foctor and measured after 60 mins by LC-MS/MS analysis
# Type: ADME, Microsome
# experimental-setup: read-out: Stability
I'd be grateful if you could share measured remaining at 1 h for these entries.
Respond numerically; units are % and should not be typed.

Exercise: Would you mind telling me what remaining at 1 h value was observed for Nc1ccc(Sc2ccnc(Nc3ccc(NC4CCOCC4)cc3)n2)cc1 ?
Solution: 100

Exercise: Do the same for Nc1ccc(Sc2ccnc(Nc3ccc(N4CCOCC4)cc3)n2)cc1 please
Solution: 48.7

* * *

# assay-info: Metabolic stability in human plasma assessed as half life and measured upto 120 mins by LC-MS/MS analysis
# Type: ADME, cell-free
property: half-life

Exercise: So what's the measured half-life for this one? Nc1ccc(Sc2ccnc(Nc3ccc(NC4CCOCC4)cc3)n2)cc1
Solution: > 4.82 h
